Every entry's value here was drawn from patent US20140154255A1.

A collection of binders and their measured Δkoff
# MEASURED_TARGET: VEGF (R&D systems, Minneapolis, Minn.) (UniProt P15692-4 27-191, limits assumed)
# Sequence (P15692 other isoform, or with tags, fused parts or gaps limits assumed): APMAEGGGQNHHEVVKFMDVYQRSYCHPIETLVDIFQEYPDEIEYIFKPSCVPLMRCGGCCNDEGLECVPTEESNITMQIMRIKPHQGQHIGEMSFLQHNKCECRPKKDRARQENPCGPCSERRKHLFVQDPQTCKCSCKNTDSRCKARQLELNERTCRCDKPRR
# TEST: BIAcore SPR, WT/mutant
Report the figure in fold without appending any unit label.

Known Δkoff results, listed for orientation:
[
  {
    "BINDER": "83 (antibody, human IgG1, V domains shown) VH: EVQLVESGGGLVQPGGSLRLSCAASGYTFTFYGMNWVRQAPGKGLEWVGWINTYTGEPTYAADFKRRFTFSLDTSKSTAYLQMNSLRAEDTAVYYCAKYPPYDGGSHWYFDVWGQGTLVTVSS VL: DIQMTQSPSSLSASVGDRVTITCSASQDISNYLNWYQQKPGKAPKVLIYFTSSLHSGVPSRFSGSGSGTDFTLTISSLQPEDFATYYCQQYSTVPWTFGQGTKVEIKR",
    "Δkoff, fold": 1.8
  },
  {
    "BINDER": "bevacizumab variant corresponding to SEQ ID NO:82 (antibody, V domains shown) VH: EVQLVESGGGLVQPGGSLRLSCAASGYTFTFYGMNWVRQAPGKGLEWVGWINTYTGEPTYAADFKRRFTFSLDTSKSTAYLQMNSLRAEDTAVYYCAKYPDYDGGSHWYFDVWGQGTLVTVSS VL: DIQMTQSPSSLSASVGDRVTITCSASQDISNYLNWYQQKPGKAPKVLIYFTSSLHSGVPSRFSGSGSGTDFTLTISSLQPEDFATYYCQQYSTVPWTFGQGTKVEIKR",
    "Δkoff, fold": 2
  }
]

Please find the next binder below.
query: Give the measured Δkoff of 94 (antibody, human IgG1, V domains shown) VH: EVQLVESGGGLVQPGGSLRLSCAASGYTFTFYGMNWVRQAPGKGLEWVGWINTYTGEPTYAADFKRRFTFSLDTSKSTAYLQMNSLRAEDTAVYYCAKYPHYYGGSHWYFDVWGQGTLVTVSS VL: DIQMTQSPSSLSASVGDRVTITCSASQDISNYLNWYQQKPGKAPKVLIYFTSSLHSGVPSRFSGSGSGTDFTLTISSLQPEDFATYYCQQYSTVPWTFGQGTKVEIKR .
result: 1.6
